System: CCRF-CEM
Experiment: NCI tumour cell line growth inhibition, 48 h
Calls of active or inactive are those of the source. Rule as the data show it: active = GI50 up to about 1.1 µM and inactive = higher.
Select the matching outcome among active, inactive

Sample answers from the record:
Cc1ccc(-c2nnc3s/c(=C\c4ccc(N(C)C)cc4)c(=O)n23)cc1	inactive
O=C1c2sc(-c3ccc(F)cc3)cc2-n2cccc21	inactive
O=C(CSCC(=O)N/N=C/c1ccccc1)N/N=C\c1ccccc1	inactive
CC(N)CC(=O)O (stereo unspecified)	inactive
CN1CCN(Cc2nc3cccc4c3c([n+]2[O-])-c2ccccc2-4)CC1	inactive

// query Hello, I am checking results. What call was entered for CC(C)CCCC(C)[C@H]1CCC2[C@@H]3CCC4Nc5c(cnn5-c5ccccc5)C[C@]4(C)C3CC[C@@]21C (stereo partly specified) ?
// result inactive

// query Given C[C@@]12CCC(=O)C=C1CC[C@H]1C2=CC[C@]2(C)C1CC[C@@]2(C)O (stereo partly specified) , state the outcome it received in this test.
// result inactive

// query What outcome does the record of this test show for `Cc1cc(NS(=O)(=O)c2ccc(Nc3c4ccccc4nc4c(C(=O)NCCO)cccc34)cc2)no1` ?
// result inactive

The values you see were collected from ChEMBL document CHEMBL1201862.
